Reference source for all entries: PubChem BioAssay (NCI)

The reader will find reported GI50 values listed item by item below.
Test system: SF-295 CNS
Assay: NCI tumour cell line growth inhibition, 48 h

CCCCCCCCN(CCCCCCCC)C(=N)c1ccnc2ccccc12 ... 1.52 µM

Query: Need GI50, item `O=c1ncc(-c2ccc(C(F)(F)F)cc2)c(NC2CCCCCC2)[nH]1`
Result: 17 µM

Query: What do you get for `COc1ccc(OC)c(/C=C/c2nnc(Nc3ccc(Cl)cc3)o2)c1` ?
Result: 6.15 µM

Query: What do you get for `CCOC(=O)[C@H](CSSc1ncnc2cc[nH]c12)NC(=O)[C@@H](C)c1ccc2cc(OC)ccc2c1` ?
Result: 0.438 µM

Query: What do you get for `COc1cc(N2CCC(N3CCN(C)CC3)CC2)ccc1Nc1ncc(Cl)c(Nc2ccccc2P(C)(C)=O)n1` ?
Result: 2.85 µM

Query: What do you get for `Cc1cc(NC(=O)c2ccc(NS(=O)(=O)CCO)cc2N2CCC3(CC2)CC3)nc(N2CCC(F)(F)CC2)n1` ?
Result: 12.3 µM
